Measured DC50, listed per entry.
- study_target: IKZF1 (Homo sapiens, UniProt Q13422+Q96SW2)
- Construct: expressed in transfected cells
- Sequence (Q13422 whole entry): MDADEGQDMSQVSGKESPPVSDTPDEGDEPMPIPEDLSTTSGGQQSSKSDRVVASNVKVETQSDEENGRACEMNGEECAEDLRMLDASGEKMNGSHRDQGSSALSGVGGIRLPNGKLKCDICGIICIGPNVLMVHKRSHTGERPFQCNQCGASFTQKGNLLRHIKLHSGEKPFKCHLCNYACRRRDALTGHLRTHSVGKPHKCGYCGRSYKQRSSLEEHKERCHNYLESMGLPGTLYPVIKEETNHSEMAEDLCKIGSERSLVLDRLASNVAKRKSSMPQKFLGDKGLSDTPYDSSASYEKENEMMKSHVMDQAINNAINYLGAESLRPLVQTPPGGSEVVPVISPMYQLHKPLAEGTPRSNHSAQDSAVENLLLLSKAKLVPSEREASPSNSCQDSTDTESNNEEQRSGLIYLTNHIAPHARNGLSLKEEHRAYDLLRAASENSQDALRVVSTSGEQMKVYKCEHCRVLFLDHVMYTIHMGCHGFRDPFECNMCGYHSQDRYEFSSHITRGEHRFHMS
- Sequence (Q96SW2 whole entry): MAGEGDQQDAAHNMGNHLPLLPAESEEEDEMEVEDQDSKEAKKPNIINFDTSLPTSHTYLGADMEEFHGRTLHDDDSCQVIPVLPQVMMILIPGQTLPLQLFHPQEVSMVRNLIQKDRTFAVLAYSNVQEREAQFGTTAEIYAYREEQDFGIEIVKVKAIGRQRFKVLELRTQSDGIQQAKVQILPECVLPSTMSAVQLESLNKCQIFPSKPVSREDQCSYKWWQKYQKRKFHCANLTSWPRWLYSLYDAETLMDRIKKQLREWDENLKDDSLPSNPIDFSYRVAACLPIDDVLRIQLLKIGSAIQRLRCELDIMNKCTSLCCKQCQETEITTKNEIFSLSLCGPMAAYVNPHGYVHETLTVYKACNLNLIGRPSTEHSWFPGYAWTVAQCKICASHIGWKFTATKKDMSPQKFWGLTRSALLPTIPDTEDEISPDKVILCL
- Sequence (Q16531 whole entry partner): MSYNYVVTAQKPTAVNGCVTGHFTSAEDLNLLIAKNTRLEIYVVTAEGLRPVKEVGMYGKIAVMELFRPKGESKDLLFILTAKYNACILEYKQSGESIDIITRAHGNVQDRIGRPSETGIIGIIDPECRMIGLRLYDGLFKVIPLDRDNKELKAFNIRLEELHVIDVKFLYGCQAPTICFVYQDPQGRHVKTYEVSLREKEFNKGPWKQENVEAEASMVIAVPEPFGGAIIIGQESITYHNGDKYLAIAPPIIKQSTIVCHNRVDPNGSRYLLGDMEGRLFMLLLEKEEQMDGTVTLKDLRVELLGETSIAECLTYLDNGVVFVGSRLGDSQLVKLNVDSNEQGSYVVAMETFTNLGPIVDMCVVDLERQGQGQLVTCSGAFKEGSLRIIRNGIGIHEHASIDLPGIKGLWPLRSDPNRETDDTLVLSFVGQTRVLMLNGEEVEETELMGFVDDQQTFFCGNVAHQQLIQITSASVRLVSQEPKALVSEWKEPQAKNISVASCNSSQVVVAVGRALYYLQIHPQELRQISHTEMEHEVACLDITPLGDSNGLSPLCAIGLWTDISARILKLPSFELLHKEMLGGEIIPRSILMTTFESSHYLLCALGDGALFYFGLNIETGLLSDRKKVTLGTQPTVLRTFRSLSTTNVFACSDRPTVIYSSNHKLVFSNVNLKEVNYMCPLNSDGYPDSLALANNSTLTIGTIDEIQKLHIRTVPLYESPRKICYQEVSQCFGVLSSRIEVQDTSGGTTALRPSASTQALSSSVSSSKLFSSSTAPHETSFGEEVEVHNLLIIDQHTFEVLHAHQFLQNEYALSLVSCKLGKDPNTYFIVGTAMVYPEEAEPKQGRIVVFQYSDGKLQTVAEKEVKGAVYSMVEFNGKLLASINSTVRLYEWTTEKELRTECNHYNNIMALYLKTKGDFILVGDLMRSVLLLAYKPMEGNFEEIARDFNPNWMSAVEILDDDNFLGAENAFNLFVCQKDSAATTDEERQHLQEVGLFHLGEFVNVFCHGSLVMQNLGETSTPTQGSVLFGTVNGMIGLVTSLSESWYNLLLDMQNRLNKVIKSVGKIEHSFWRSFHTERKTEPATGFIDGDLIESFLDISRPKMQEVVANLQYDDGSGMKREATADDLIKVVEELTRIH
- test_details: HEK293 HiBiT in vitro degradation of IKZF1
- Type: cell-based
- experimental_conditions: HEK293 HiBiT, 18-24 hr incubation, normalized to DMSO control; read-out: IKZF1 EC50

Reading of DC50 for CC1(C)COCCC1N[C@H]1CCCC[C@@H]1Cc1ccc2c(c1)CN(C1CCC(=O)NC1=O)C2=O (stereo partly shown) with IKZF1 (Homo sapiens, UniProt Q13422+Q96SW2): > 10000 nM

Response field DC50 (IKZF1 (Homo sapiens, UniProt Q13422+Q96SW2)) for item O=C1CCC(N2Cc3cc(C[C@H]4CCCC[C@@H]4N4CC(c5ccccc5)C4)ccc3C2=O)C(=O)N1 (stereo partly shown) : > 1000 nM

Summary line: O=C1CCC(N2Cc3cc(C[C@H]4CCCC[C@@H]4NCc4ccc(C(F)(F)F)cc4)ccc3C2=O)C(=O)N1 (stereo partly shown) , IKZF1 (Homo sapiens, UniProt Q13422+Q96SW2), reported DC50 = > 1000 nM

Moving on to the next molecule.
Field DC50 (IKZF1 (Homo sapiens, UniProt Q13422+Q96SW2)), entry CC1(C)CC(N[C@H]2CCCO[C@@H]2Cc2ccc3c(c2F)CN(C2CCC(=O)NC2=O)C3=O)CCO1 (stereo partly shown) [Example 222] : > 1000 nM

###

- study_target: IKZF1 (Homo sapiens, UniProt Q13422+Q96SW2)
- Construct: expressed in transfected cells
- test_details: HEK293 HiBiT in vitro degradation of IKZF1
- Assay type: cell-based
- experimental_conditions: HEK293, HEK293 HiBiT; maximum degradation at the highest concentration tested
experimental_endpoint: Dmax (%)

Lab book: Dmax of CC(C)OC1CCC(N[C@H]2CCCO[C@@H]2Cc2ccc3c(c2F)CN(C2CCC(=O)NC2=O)C3=O)CC1 (single isomer, unassigned) [Example 285] noted as 37

Short answer for CC(N[C@H]1CCCC[C@@H]1Cc1ccc2c(c1)CN(C1CCC(=O)NC1=O)C2=O)C1CCC1 (some centres unmarked) [Example 218] : Dmax was 34

Notebook: COC1CCC(N[C@H]2CCCC[C@@H]2Cc2ccc3c(c2)CN(C2CCC(=O)NC2=O)C3=O)CC1 (single isomer, unassigned) [Example 277] , Dmax read as 37

[A] O=C1CCC(N2Cc3c(ccc(C[C@H]4OCCC[C@@H]4N[C@H]4CC[C@H](F)CC4)c3F)C2=O)C(=O)N1 (single isomer, unassigned) [Example 289]
[B] CC(N[C@H]1CCCC[C@@H]1Cc1ccc2c(c1)CN(C1CCC(=O)NC1=O)C2=O)C(C)(C)F (single isomer, unassigned) [Example 226]
Lab note: check whether A or B has the lower measured Dmax. Reply briefly: the label of your chosen item.
A

###

- study_target: IKZF2 (Homo sapiens, UniProt Q96SW2+Q9UKS7)
- Sequence (Q9UKS7 1-500 isoform Q9UKS7-2): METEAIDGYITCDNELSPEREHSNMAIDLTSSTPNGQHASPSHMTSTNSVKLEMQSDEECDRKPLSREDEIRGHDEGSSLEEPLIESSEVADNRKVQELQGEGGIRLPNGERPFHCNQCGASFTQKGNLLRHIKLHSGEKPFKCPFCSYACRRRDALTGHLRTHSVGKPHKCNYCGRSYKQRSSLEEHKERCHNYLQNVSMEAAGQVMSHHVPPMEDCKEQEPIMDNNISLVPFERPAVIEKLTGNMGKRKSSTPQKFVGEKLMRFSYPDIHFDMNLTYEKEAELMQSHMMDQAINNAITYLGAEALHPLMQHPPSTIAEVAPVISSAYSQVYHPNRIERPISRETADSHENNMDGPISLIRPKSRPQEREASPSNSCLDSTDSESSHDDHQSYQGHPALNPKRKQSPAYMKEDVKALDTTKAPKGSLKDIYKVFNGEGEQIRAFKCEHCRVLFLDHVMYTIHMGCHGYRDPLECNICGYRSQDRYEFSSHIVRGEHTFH
- Sequence (Q96SW2 whole entry): as the sequence (Q96SW2 whole entry) above
- Sequence (Q16531 whole entry partner): as the sequence (Q16531 whole entry partner) above
- test_details: HEK293 HiBiT in vitro degradation of IKZF2
- Assay type: cell-based
- Parameters: expressed in transfected cells
- experimental_conditions: HEK293, HEK293 HiBiT; maximum degradation at the highest concentration tested
experimental_endpoint: Dmax (%)

compound O=C1CCC(N2Cc3cc(C[C@H]4CCCC[C@@H]4NCc4cccnc4C(F)(F)F)ccc3C2=O)C(=O)N1 (stereo partly drawn) [Example 58] , Dmax observed: 75

Query O=C1CCC(N2Cc3c(ccc(C[C@H]4OCCC[C@@H]4NC4CCCCC4)c3F)C2=O)C(=O)N1 (stereo partly drawn) [Example 181] yields Dmax of 96

Short answer for O=C1CCC(N2Cc3cc(C[C@H]4CCCC[C@@H]4NC4CCC(c5ccccn5)CC4)ccc3C2=O)C(=O)N1 (stereo partly drawn) [Example 379] : Dmax was 96

// recorded Dmax for COC1(C)CCC(N[C@H]2CCCO[C@@H]2Cc2ccc3c(c2F)CN(C2CCC(=O)NC2=O)C3=O)CC1 (single isomer, unassigned) [Example 316] : 95

Note to self: Dmax recorded for N#Cc1ccc(CN[C@H]2CCCC[C@@H]2Cc2ccc3c(c2)CN(C2CCC(=O)NC2=O)C3=O)cc1 (stereo partly drawn) [Example 20] was 94

For reference, reported Dmax for O=C1CCC(N2Cc3cc(C[C@H]4CCCC[C@@H]4NC4CCCCCC4)ccc3C2=O)C(=O)N1 (stereo partly drawn) [Example 196] stands at 97

Entry O=C1CCC(N2Cc3c(ccc(C[C@H]4OCCC[C@@H]4NCC4CCC4)c3F)C2=O)C(=O)N1 (stereo partly drawn) [Example 152] — recorded Dmax = 78

So for O=C1CCC(N2Cc3c(ccc(C[C@H]4CCCC[C@@H]4NC4CCCCC4)c3F)C2=O)C(=O)N1 (stereo partly drawn) [Example 88] , the logged Dmax turned out to be 99

Entry CCOC1CN([C@H]2CCCC[C@@H]2Cc2ccc3c(c2)CN(C2CCC(=O)NC2=O)C3=O)C1 (stereo partly drawn) [Example 31] , Dmax reported as 85

compound CC(N[C@H]1CCCC[C@@H]1Cc1ccc2c(c1)CN(C1CCC(=O)NC1=O)C2=O)C(C)(C)F (single isomer, unassigned) [Example 226] , Dmax observed: 93

Value of Dmax reported for the compound O=C1CCC(N2Cc3cc(C[C@H]4CCCC[C@@H]4NCCc4ccccc4)ccc3C2=O)C(=O)N1 (stereo partly drawn) [Example 93] is 91

// field: Dmax; key: O=C1CCC(N2Cc3c(ccc(C[C@H]4OCCC[C@@H]4NC4CCN(CC(F)(F)F)CC4)c3F)C2=O)C(=O)N1 (stereo partly drawn) [Example 308] ; value = 96

Lab note: measured Dmax of O=C1CCC(N2Cc3c(ccc(C[C@H]4OCCC[C@@H]4NC4CC5(CCCCC5)C4)c3F)C2=O)C(=O)N1 (stereo partly drawn) [Example 158] was 91

Reported Dmax for CC(N[C@H]1CC(F)(F)CC[C@@H]1Cc1ccc2c(c1)CN(C1CCC(=O)NC1=O)C2=O)C1CCOCC1 (stereo partly drawn) [Example 349] was 92

In plain terms, CCN[C@H]1CCCC[C@@H]1Cc1ccc2c(c1)CN(C1CCC(=O)NC1=O)C2=O (stereo partly drawn) [Example 35] has a documented Dmax of 94

Form: compound = O=C1CCC(N2Cc3cc(C[C@H]4CCCC[C@@H]4NC4CCC5(CC5)C4)ccc3C2=O)C(=O)N1 (single isomer, unassigned) [Example 281] ; Dmax = 96

Notebook: O=C1CCC(N2Cc3cc(C[C@H]4CCCC[C@@H]4NCC4CC(F)(F)C4)ccc3C2=O)C(=O)N1 (stereo partly drawn) [Example 24] , Dmax read as 91

Item: O=C1CCC(N2Cc3cc(C[C@H]4CCCC[C@@H]4NCc4ccccc4Cl)ccc3C2=O)C(=O)N1 (stereo partly drawn) [Example 3] | Dmax: 94

Looking up O=C1CC[C@H](N2Cc3c(ccc(C[C@H]4OCCC[C@@H]4N[C@H]4CC[C@H](F)CC4)c3F)C2=O)C(=O)N1 [Example 369] , I see its Dmax listed as 97

The measured Dmax associated with O=C1CC[C@@H](N2Cc3cc(C[C@H]4CCCC[C@@H]4NC4CCC(F)(F)CC4)ccc3C2=O)C(=O)N1 (single isomer, unassigned) [Example 329] reads 98

Entry COC1CCC(NC2CCCOC2Cc2ccc3c(c2F)CN(C2CCC(=O)NC2=O)C3=O)CC1 (stereo not drawn) [Example 156] ; Dmax = 98
